B1: tRNA (parent)
chain: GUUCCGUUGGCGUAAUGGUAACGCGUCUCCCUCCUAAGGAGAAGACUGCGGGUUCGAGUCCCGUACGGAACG

# Variants of: B1
# test details: yeast fitness, log relative to wild type (ln ratio); higher = fitter; tRNA-Arg(CCU), competitive growth, 37 C, 1 M NaCl
// NOT MET strictly below -0.2 in yeast fitness (ln); MET otherwise

ACUCCGUUGGCGUAAUGGUAACGCGUUUCCCUCCUAAGGAGACGAUUGCGGGUUCGAGUCCCGUAAGGAUCG [G1A U2C C27U A43C C46U C66A A70U] ... MET
AGUCCUUUGGCGUAAUGGUAACGCGUCUCCCUCCUAAGGAGACGACUGCGGGUUCGAGUCCCGUAAGGGUUG [G1A U2G G6U A43C C66A A69G A70U C71U] ... NOT MET
GCUCCGUUGGCGUAAUGGUAACGCGUCUCCCUCCUAAGGAGAAGAUUGCGGGUUCGAGUCCCGUACGGAACG [U2C C46U] ... MET
GCUCCGUUGGCGUAAUGGUAACGCGUUUCCCUCCUAAGGAGACGACUGCGGGUUCGAGUCCCGUACGGAGCG [U2C C27U A43C A70G] ... MET
AUUCCGUUGGCGUAAUGGUAACGCGUCUCCCUCCUAAGGAGACGAUUGCGGGUUCGAGUCCCGUAAGGGUCG [G1A A43C C46U C66A A69G A70U] ... MET

Now take the following variant into account.
Exercise: Threshold query (yeast fitness (ln) >= -0.2) on GCUCCGUUGGCGUAAUGGUAACGCGUCUCCCUCCUAAGGAGACGAUUGCGGGUUCGAGUCCCGUACGGAACG [U2C A43C C46U]
Solution: MET

Cited source: the RNAGym collection of RNA variant scans (doi:10.1038/s41586-018-0170-7)
